The compounds listed here are annotated with their TIME.
# assay-comment: Antioxidant activity against CuSO4-induced LDL oxidation assessed as delta-lag time at 100 uM by spectrophotometric analysis
# Assay type: functional
Response body: numeric value in h, unit text excluded.

As a guide, the following entries are already answered.
Consider the compound shown here: NCCC(=O)N[C@@H](Cc1c[nH]cn1)C(=O)NCCCO[N+](=O)[O-] What is its recorded TIME?
1.5

Endpoint output: TIME of NCCC(=O)N[C@@H](Cc1c[nH]cn1)C(=O)NCc1ccc(OCCCO[N+](=O)[O-])cc1 . Value?
1.17

Continuing:
Look up TIME for this compound: NCCC(=O)N[C@@H](Cc1c[nH]cn1)C(=O)NC[C@@H](CO[N+](=O)[O-])O[N+](=O)[O-]
1.25

Reported TIME, compound NCCC(=O)N[C@@H](Cc1c[nH]cn1)C(=O)NC[C@H](CO[N+](=O)[O-])O[N+](=O)[O-] : ____
1.47

Fill in: TIME of CCCOc1ccc(CNC(=O)[C@H](Cc2c[nH]cn2)NC(=O)CCN)cc1 is ___
1.07
